The origin of these recorded values is the OPERA property sets (Mansouri et al. 2018).

{"chemical-smiles": "CN(C)c1ccc(Cc2ccc(N(C)C)cc2)cc1", "log10 Koc (L/kg)": 3.96}
{"chemical-smiles": "OC(c1ccccc1)c1ccccc1", "log10 Koc (L/kg)": 2.34}
{"chemical-smiles": "CC(C)OC(=O)Nc1cccc(Cl)c1", "log10 Koc (L/kg)": 2.6}

---

reported-property: melting point

{"compound": "O=C(O)c1cncc(C(=O)O)c1", "result": "324 °C"}
{"compound": "Oc1cccc(O)c1", "result": "111 °C"}
{"compound": "CC(C)(OCc1ccc(-c2ccc(Cl)cc2)cc1)C(=O)O", "result": "154 °C"}
{"compound": "OC[C@H]1O[C@@H](Oc2ccc(O)cc2)[C@H](O)[C@@H](O)[C@@H]1O", "result": "200 °C"}
{"compound": "OC[C@H]1O[C@H](O[C@]2(CCl)O[C@H](CCl)[C@@H](O)[C@@H]2O)[C@H](O)[C@@H](O)[C@H]1Cl", "result": "130 °C"}
{"compound": "Cc1cccc2sc3nncn3c12", "result": "187 °C"}
{"compound": "O=C(c1ccccc1)C(Cl)c1ccccc1 (stereo not given)", "result": "68.5 °C"}
{"compound": "Cc1ccc(C(=O)O)c(O)c1", "result": "177 °C"}
{"compound": "COCCOC(=O)c1ccccc1C(=O)OCCOC", "result": "-45 °C"}
{"compound": "CCC(C)c1ccccc1O (stereo not given)", "result": "16 °C"}
{"compound": "C1CSC1", "result": "-73.2 °C"}
{"compound": "Clc1cc2c(cc1Cl)Oc1cc(Cl)c(Cl)cc1O2", "result": "305 °C"}
{"compound": "N#CCCCCCN", "result": "-31.4 °C"}
{"compound": "COc1ccc(CCC(C)=O)cc1", "result": "8 °C"}
{"compound": "Oc1cc(Cl)cc(Br)c1", "result": "70 °C"}
{"compound": "ClC1=C(Cl)C(Cl)(Cl)C(Cl)(Cl)C1(Cl)Cl", "result": "40 °C"}
{"compound": "Oc1ccc(NCc2ccccc2)cc1", "result": "88 °C"}
{"compound": "CCOCCOC(=O)C=Cc1ccc(OC)cc1", "result": "-25 °C"}
{"compound": "CCCCCCCCCCCCCCCCN", "result": "46.8 °C"}
{"compound": "Brc1ccccc1Br", "result": "7.1 °C"}
{"compound": "COc1ccc2[nH]ccc2c1", "result": "57 °C"}
{"compound": "Cc1c(C)c2c3ccccc3ccc2c2ccccc12", "result": "129 °C"}
{"compound": "O=C(O)c1cccc(I)c1", "result": "188 °C"}
{"compound": "O=[N+]([O-])c1cccc(S(=O)(=O)NCCNS(=O)(=O)c2cccc([N+](=O)[O-])c2)c1", "result": "190 °C"}
{"compound": "O=[N+]([O-])c1cc(Br)ccc1Br", "result": "85.5 °C"}
{"compound": "CC(=O)[C@H]1CC[C@H]2[C@@H]3CC=C4C[C@@H](O)CC[C@]4(C)[C@H]3CC[C@]12C", "result": "192 °C"}
{"compound": "O=C1c2ccccc2C(=O)N1c1ccccc1", "result": "210 °C"}
{"compound": "CCCCCCCCOC=O", "result": "-39.1 °C"}
{"compound": "C=CCOC(=O)CCC", "result": "-80 °C"}
{"compound": "COC(=O)CCC(=O)OC", "result": "19 °C"}
